# Test system: NCI-H23 lung
# measurement.description: NCI tumour cell line growth inhibition, 48 h
observation.type: TGI (µM)
Field format: number, assumed µM, no unit text.

[
  {
    "compound": "CC(=O)NC1=C(C)C(=O)c2c(nc3n2CCC3OC(=O)c2ccccc2)C1=N (stereo not given)",
    "quantity.unit": "µM",
    "TGI": 3.83
  }
]

Quick one: TGI for CN1CCN(CCCOc2cccc3nc(Nc4ccc(Cl)c(F)c4)ccc23)CC1 ?
3.43

====

# Tested on: HOP-62 NSCLC
# measurement.description: NCI tumour cell line growth inhibition, 48 h
observation.type: TGI

Observe how each entry below is paired with its result.
[
  {
    "molecule": "CC(C)(C)[Si](C)(C)OCC1CCC(n2cnc3c(=O)[nH]cnc32)O1 (stereo not given)",
    "TGI": "> 100 µM"
  },
  {
    "molecule": "Nc1nc(Cl)c(N)c(NCC2(CO)CC(Cc3ccccc3)C2)n1 (stereo not given)",
    "TGI": "> 100 µM"
  },
  {
    "molecule": "C[C@@]12c3c4ccc(C=O)c3Oc3ccc(C=O)c(c31)Oc1c(C=O)ccc(c12)O4",
    "TGI": "> 100 µM"
  },
  {
    "molecule": "COC(=O)C1=C(OC(=O)/C(=C/c2ccc(Cl)cc2Cl)c2ccc(Cl)cc2Cl)C(C(=O)OC)[C@@]2(O)[C@@H](C(=O)OC)[C@H](C)C[C@@H]1[C@@H]2C(=O)OC (stereo not given in full)",
    "TGI": "> 100 µM"
  }
]

Which TGI value belongs to N#CC(C#N)=Cc1c(-c2ccccc2)[nH]c2ccccc12 ?
55.2 µM

meta.source: PubChem BioAssay (NCI)
